Reference source for all entries: ChEMBL document CHEMBL1201862

Tested on: NCI-H522
procedure-details: NCI tumour cell line growth inhibition, 48 h
The source made the active and inactive calls. Rule as the data show it: active = GI50 up to about 1.1 µM and inactive = higher.
# GI50 annotations
observable: GI50

                                   molecule               result
0  N#Cc1c2c(c(N3CCOCC3)n3c1nc1ccccc13)CCCC2   16.3 µM (inactive)
1  COc1cc2c(/C=C3/C(=O)N(c4ccccc4)c4ccccc43)c(Cl)[nH]c2cc1C   1.44 µM (inactive)
2  Cc1cc2c(c(C(=O)NCC(=O)O)c1)Oc1c(cc(C)cc1C(=O)NCC(=O)O)S2  > 100 µM (inactive)
3             Nc1nnc(-c2ccco2)c(-c2ccco2)n1  > 100 µM (inactive)
4  O=C(CSc1nc(-c2ccccc2)c(-c2ccccc2)[nH]1)NNC(=S)Nc1ccccc1   19.2 µM (inactive)
5  CC(=O)OCC1OC(OCCCCCCO)C(OC(C)=O)C(OC(C)=O)C1OC(C)=O (stereo not given)  > 100 µM (inactive)
6  CSc1cc(Cl)c(C)cc1S(=O)(=O)NC(=O)NNc1ccc(F)c(Cl)c1  > 100 µM (inactive)
7  CCCN1CN(c2ccccc2)C2(CCN(CCCC(=O)c3ccc(F)cc3)CC2)C1=O   20.3 µM (inactive)
8          CC1CC[P+](c2ccccc2)(c2ccccc2)CC1   40.5 µM (inactive)
9  CCOC(=O)C1=C(C(=O)OCC)C2(c3ccccc3)N(O1)c1ccccc1C2(C)C (stereo not given)   22.6 µM (inactive)

---

Tested on: NCI-H23
procedure-details: NCI tumour cell line growth inhibition, 48 h
The source made the active and inactive calls. Cut-off read from the data, not from the text of the source: active = GI50 up to about 1.1 µM and inactive = higher.
# GI50 annotations
observable: GI50

compound	result
COC(=O)C1([C@@H]2C[C@@H](O)[C@]3(C)CC/C=C(\C)CCC[C@H](C)[C@H](O)[C@@H]2O3)CC1	50.4 µM (inactive)
COc1ccc(C(=O)CC2=Nc3nnc(CCCCCCCc4nnc5n4C(=O)C(CC(=O)c4ccc(OC)cc4)=N5)n3C2=O)cc1	> 100 µM (inactive)
C=C(C1=CC(=O)C(C)(C)O1)[C@@H]1CC=C([C@@H]2CC[C@H]3[C@@]2(C)CC[C@H]2C(C)(C)C(=O)[C@H](O)C[C@]32C)[C@H](O)O1	3.85 µM (inactive)
COC(=O)c1ccccc1/C=C1\Cc2c(C)c3c(c(C)c2C1=O)CCC3	> 100 µM (inactive)
CC(=O)OCC1OC(n2c3c(c(-c4ccc(Cl)cc4)c(C#N)c2=S)C(=O)CC(C)(C)C3)C(OC(C)=O)C(OC(C)=O)C1OC(C)=O (stereo not drawn)	28.8 µM (inactive)
COC(=O)C1=C(O)C(C(=O)OC)[C@@]2(O)[C@@H](C(=O)OC)C(c3ccc(OC(=O)/C(=C/c4ccc(Cl)cc4)c4ccc(Cl)cc4)cc3)C[C@@H]1[C@@H]2C(=O)OC (stereo partly drawn)	50.1 µM (inactive)
Cc1cc(C)n(C(C)(C(=O)Cc2ccccc2)n2nc(C)cc2C)n1	> 100 µM (inactive)
Cc1ccc(-n2c(=S)[nH]c3ccc(Br)cc3c2=O)cc1	> 100 µM (inactive)
COc1cc2c3c(c1)c1cc(OC)c(OC)cc1c[n+]3CC2	7.29 µM (inactive)
CC1C(c2ccc3c(c2)OCO3)c2cc3c(cc2OC1N1CCOCC1)OCO3 (stereo not drawn)	26.5 µM (inactive)
COc1cc(O)c2c(=O)cc(-c3ccc(O)cc3O)oc2c1CC=C(C)C	17.6 µM (inactive)
O=C(/C=C/C(Cl)(Cl)Cl)Nc1ccc(Cl)cc1	3.36 µM (inactive)
NS(=O)(=O)c1nnc(NS(=O)(=O)c2ccccc2C(=O)O)s1	> 100 µM (inactive)
c1nc(N2CC2)c2cnn(C3CCCCO3)c2n1 (stereo not drawn)	> 100 µM (inactive)
COC(=O)C(Cc1ccccc1)NP(=O)(O)OCC1OC(n2cc(I)c(=O)[nH]c2=O)CC1O (stereo not drawn)	> 100 µM (inactive)
O=C1NC(=O)[C@@H](OCC2CCCCC2)[C@@H]2OCC3OC(C(O)C3O)C12 (stereo partly drawn)	> 100 µM (inactive)
O=C1C=C(N2CCN(c3ncccn3)CC2)C(=O)c2c(O)ccc(O)c21	> 100 µM (inactive)
COC1CC(OC)C(O)C(CO)O1 (stereo not drawn)	> 100 µM (inactive)
CC1(c2ccccc2)N=c2[nH]cnc2=C(C(N)=O)N1 (stereo not drawn)	> 100 µM (inactive)
O=C(Cc1c(C(=O)Nc2ccccc2)sc(C(=O)Nc2ccccc2)c1CC(=O)Nc1ccccc1)Nc1ccccc1	> 100 µM (inactive)
CCN(CC)CC(=O)Nc1ccc2c(c1)C(=O)c1ccc(NC(=O)CN(CC)CC)cc1C2=O	77.6 µM (inactive)
COC(=O)C(=O)C(C(=O)C=C(C)C)C(=O)C(=O)Nc1ccc(C)cc1C (stereo not drawn)	> 100 µM (inactive)
Cn1c(-c2ccc(/N=N/Nc3ccc(-c4n[nH]c(=S)n4C)cc3)cc2)n[nH]c1=S	7.8 µM (inactive)
CCOC(=O)C1=C(C)N(C2OC(COC(=O)c3ccccc3)C(OC(=O)c3ccccc3)C2OC(=O)c2ccccc2)C(=S)NC1c1ccccc1 (stereo not drawn)	29.1 µM (inactive)
COc1ccc2[nH]cc(CCNC(=O)[C@H](Cc3ccc(O)cc3)NC(=O)[C@@H](NCC(F)(F)F)C(C)C)c2c1	> 100 µM (inactive)
Cc1cc(N(CCC#N)CCC#N)ccc1C(/N=N/c1ccc(C(=O)O)cc1)=N\NC(=O)c1ccccc1	17.7 µM (inactive)
O=C(O)Cc1cccc2c1Oc1ccccc1S2	> 100 µM (inactive)
N#CC1(C#N)C(=O)c2ccncc2C1=O	> 100 µM (inactive)
Cc1c(C)c(C)c(-n2c(=O)n(C)c(=O)n2C(C)(C)C)c(C)c1C	> 100 µM (inactive)
OCC(CCc1ccccc1I)C1=CCC2(CC1)OCCO2 (stereo not drawn)	20.5 µM (inactive)
CC(C)=NNC(=S)NC12CC3CC(CC(C3)C1)C2	> 100 µM (inactive)
COc1ccc(S(=O)(=O)Nc2ccc(-c3csc(N4C(=O)/C(=C/C=C\c5ccccc5)N=C4c4ccccc4)n3)cc2)cc1Cl	18.9 µM (inactive)
COC(=O)c1ccc(/N=N/N(C)COc2ccc([N+](=O)[O-])cc2)cc1	> 100 µM (inactive)
O=C(c1cccs1)c1nccc2c1cnc1ccccc12	92.7 µM (inactive)
O=C1CSc2ccncc2N1	> 100 µM (inactive)
O=[N+]([O-])c1ccc(N/N=C/c2ccc(OCCCCCCCCCCCO)cc2)c([N+](=O)[O-])c1	14.4 µM (inactive)
COC(=O)CN1Cc2cc(C)cc(c2O)CN(CC(=O)OC)Cc2cc(C)cc(c2O)CN(CC(=O)OC)Cc2cc(C)cc(c2O)C1	> 100 µM (inactive)
CCOC(=O)C(=O)CC1=Nc2ccccc2SC(c2cccc(C)c2)C1 (stereo not drawn)	17.1 µM (inactive)
